# System: P. auruginosa 21630
# assay-notes: microbe, parasite or virus in culture
# Format: cell-based, Pseudomonas aeruginosa
Residues, ends and D or L forms follow the SMILES beside them.
Reported values of MIC for individual entries
The figure you give is taken to be in µM; do not add the unit.

Worked examples, 2 compounds total:
[
  {
    "compound": "CC[C@H](C)[C@H](NC(=O)[C@H](CCCCN)NC(=O)[C@H](CCCCN)NC(=O)[C@H](CC(C)C)NC(=O)[C@H](CCCNC(=N)N)NC(=O)[C@H](CCCCN)NC(=O)[C@H](CCCNC(=N)N)NC(=O)[C@H](Cc1ccccc1)NC(=O)[C@H](CCCCN)NC(=O)[C@H](CCCCN)NC(=O)[C@H](CCCNC(=N)N)NC(=O)[C@H](CC(C)C)NC(=O)[C@H](CCCNC(=N)N)NC(=O)[C@H](CCCNC(=N)N)NC(=O)[C@H](Cc1ccccc1)NC(=O)[C@@H](N)CCCNC(=N)N)C(N)=O [T9F] (H-RFRRLRKKFRKRLKKI-NH2)",
    "measurement-kind": "MIC",
    "value-measured": 256
  },
  {
    "compound": "CC[C@H](C)[C@H](NC(=O)[C@H](CCCCN)NC(=O)[C@H](CCCCN)NC(=O)[C@H](CC(C)C)NC(=O)[C@H](CCCNC(=N)N)NC(=O)[C@H](CCCCN)NC(=O)[C@H](CCCNC(=N)N)NC(=O)[C@H](Cc1c[nH]c2ccccc12)NC(=O)[C@H](CCCCN)NC(=O)[C@H](CCCCN)NC(=O)[C@H](CCCNC(=N)N)NC(=O)[C@H](CC(C)C)NC(=O)[C@H](CCCNC(=N)N)NC(=O)[C@H](CCCNC(=N)N)NC(=O)[C@H](Cc1ccccc1)NC(=O)[C@@H](N)CCCNC(=N)N)C(N)=O [T9W] (H-RFRRLRKKWRKRLKKI-NH2)",
    "measurement-kind": "MIC",
    "value-measured": 4
  }
]

# evaluate next
response.value for CC[C@H](C)[C@H](NC(=O)[C@H](CCCCN)NC(=O)[C@H](CCCCN)NC(=O)[C@H](CC(C)C)NC(=O)[C@H](CCCNC(=N)N)NC(=O)[C@H](CCCCN)NC(=O)[C@H](CCCNC(=N)N)NC(=O)[C@H](CCCCN)NC(=O)[C@H](CCCCN)NC(=O)[C@H](CCCCN)NC(=O)[C@H](CCCNC(=N)N)NC(=O)[C@H](CC(C)C)NC(=O)[C@H](CCCNC(=N)N)NC(=O)[C@H](CCCNC(=N)N)NC(=O)[C@H](Cc1ccccc1)NC(=O)[C@@H](N)CCCNC(=N)N)C(N)=O [T9K] (H-RFRRLRKKKRKRLKKI-NH2) (field: MIC) = 256

###

# Test system: P. auruginosa 21630
# assay-notes: microbe, parasite or virus in culture
# Format: cell-based, Pseudomonas aeruginosa
Residues, ends and D or L forms follow the SMILES beside them.
measurement-kind: MIC (µM)
The figure you give is taken to be in µM; do not add the unit.

response.value for CC[C@H](C)[C@H](NC(=O)[C@H](CCCCN)NC(=O)[C@H](CCCCN)NC(=O)[C@H](CC(C)C)NC(=O)[C@H](CCCNC(=N)N)NC(=O)[C@H](CCCCN)NC(=O)[C@H](CCCNC(=N)N)NC(=O)[C@@H](NC(=O)[C@H](CCCCN)NC(=O)[C@H](CCCCN)NC(=O)[C@H](CCCNC(=N)N)NC(=O)[C@H](CC(C)C)NC(=O)[C@H](CCCNC(=N)N)NC(=O)[C@H](CCCNC(=N)N)NC(=O)[C@H](Cc1ccccc1)NC(=O)[C@@H](N)CCCNC(=N)N)[C@@H](C)CC)C(N)=O [T9I] (H-RFRRLRKKIRKRLKKI-NH2) (field: MIC) = 256

###

# Tested on: S. typhimurium 7731
# assay-notes: microbe, parasite or virus in culture
# Type: cell-based, Salmonella typhimurium
# condition-set: 7731
# Description: Minimal inhibitory concentration (MIC) assays were performed as described previously. Briefly, after incubation overnight in Mueller-Hinton (MH) broth at 37°C, the bacteria were grown to exponential growth phase and diluted to approximately 1×10^5 CFU/ml. […] The MICs were determined as the lowest concentration of peptide that prevented visible turbidity by visual inspection after incubation at 37°C for 16–18 h. […]
Residues, ends and D or L forms follow the SMILES beside them.
measurement-kind: MIC (µM)
The figure you give is taken to be in µM; do not add the unit.

Worked examples, 3 molecules total:
[
  {
    "molecule": "CC[C@H](C)[C@H](NC(=O)[C@H](CCCCN)NC(=O)[C@H](CCCCN)NC(=O)[C@H](CC(C)C)NC(=O)[C@H](CCCNC(=N)N)NC(=O)[C@H](CCCCN)NC(=O)[C@H](CCCNC(=N)N)NC(=O)[C@@H](NC(=O)[C@H](CCCCN)NC(=O)[C@H](CCCCN)NC(=O)[C@H](CCCNC(=N)N)NC(=O)[C@H](CC(C)C)NC(=O)[C@H](CCCNC(=N)N)NC(=O)[C@H](CCCNC(=N)N)NC(=O)[C@H](Cc1ccccc1)NC(=O)[C@@H](N)CCCNC(=N)N)[C@@H](C)CC)C(N)=O [T9I] (H-RFRRLRKKIRKRLKKI-NH2)",
    "MIC, µM": 256
  },
  {
    "molecule": "CC[C@H](C)[C@H](NC(=O)[C@H](CCCCN)NC(=O)[C@H](CCCCN)NC(=O)[C@H](CC(C)C)NC(=O)[C@H](CCCNC(=N)N)NC(=O)[C@H](CCCCN)NC(=O)[C@H](CCCNC(=N)N)NC(=O)[C@H](Cc1c[nH]c2ccccc12)NC(=O)[C@H](CCCCN)NC(=O)[C@H](CCCCN)NC(=O)[C@H](CCCNC(=N)N)NC(=O)[C@H](CC(C)C)NC(=O)[C@H](CCCNC(=N)N)NC(=O)[C@H](CCCNC(=N)N)NC(=O)[C@H](Cc1ccccc1)NC(=O)[C@@H](N)CCCNC(=N)N)C(N)=O [T9W] (H-RFRRLRKKWRKRLKKI-NH2)",
    "MIC, µM": 128
  },
  {
    "molecule": "CC[C@H](C)[C@H](NC(=O)[C@H](CCCCN)NC(=O)[C@H](CCCCN)NC(=O)[C@H](CC(C)C)NC(=O)[C@H](CCCNC(=N)N)NC(=O)[C@H](CCCCN)NC(=O)[C@H](CCCNC(=N)N)NC(=O)[C@H](Cc1ccccc1)NC(=O)[C@H](CCCCN)NC(=O)[C@H](CCCCN)NC(=O)[C@H](CCCNC(=N)N)NC(=O)[C@H](CC(C)C)NC(=O)[C@H](CCCNC(=N)N)NC(=O)[C@H](CCCNC(=N)N)NC(=O)[C@H](Cc1ccccc1)NC(=O)[C@@H](N)CCCNC(=N)N)C(N)=O [T9F] (H-RFRRLRKKFRKRLKKI-NH2)",
    "MIC, µM": 128
  }
]

# evaluate next
response.value for CC[C@H](C)[C@H](NC(=O)[C@H](CCCCN)NC(=O)[C@H](CCCCN)NC(=O)[C@H](CC(C)C)NC(=O)[C@H](CCCNC(=N)N)NC(=O)[C@H](CCCCN)NC(=O)[C@H](CCCNC(=N)N)NC(=O)[C@H](CCCCN)NC(=O)[C@H](CCCCN)NC(=O)[C@H](CCCCN)NC(=O)[C@H](CCCNC(=N)N)NC(=O)[C@H](CC(C)C)NC(=O)[C@H](CCCNC(=N)N)NC(=O)[C@H](CCCNC(=N)N)NC(=O)[C@H](Cc1ccccc1)NC(=O)[C@@H](N)CCCNC(=N)N)C(N)=O [T9K] (H-RFRRLRKKKRKRLKKI-NH2) (field: MIC) = 256

###

# Tested on: E. coli 25922
# assay-notes: microbe, parasite or virus in culture
# Type: cell-based, Escherichia coli
# condition-set: 25922
Residues, ends and D or L forms follow the SMILES beside them.
measurement-kind: MIC (µM)
The figure you give is taken to be in µM; do not add the unit.

Worked examples, 3 molecules total:
[
  {
    "molecule": "CC[C@H](C)[C@H](NC(=O)[C@H](CCCCN)NC(=O)[C@H](CCCCN)NC(=O)[C@H](CC(C)C)NC(=O)[C@H](CCCNC(=N)N)NC(=O)[C@H](CCCCN)NC(=O)[C@H](CCCNC(=N)N)NC(=O)[C@H](CCCCN)NC(=O)[C@H](CCCCN)NC(=O)[C@H](CCCCN)NC(=O)[C@H](CCCNC(=N)N)NC(=O)[C@H](CC(C)C)NC(=O)[C@H](CCCNC(=N)N)NC(=O)[C@H](CCCNC(=N)N)NC(=O)[C@H](Cc1ccccc1)NC(=O)[C@@H](N)CCCNC(=N)N)C(N)=O [T9K] (H-RFRRLRKKKRKRLKKI-NH2)",
    "MIC [µM]": 128
  },
  {
    "molecule": "CC[C@H](C)[C@H](NC(=O)[C@H](CCCCN)NC(=O)[C@H](CCCCN)NC(=O)[C@H](CC(C)C)NC(=O)[C@H](CCCNC(=N)N)NC(=O)[C@H](CCCCN)NC(=O)[C@H](CCCNC(=N)N)NC(=O)[C@@H](NC(=O)[C@H](CCCCN)NC(=O)[C@H](CCCCN)NC(=O)[C@H](CCCNC(=N)N)NC(=O)[C@H](CC(C)C)NC(=O)[C@H](CCCNC(=N)N)NC(=O)[C@H](CCCNC(=N)N)NC(=O)[C@H](Cc1ccccc1)NC(=O)[C@@H](N)CCCNC(=N)N)[C@@H](C)CC)C(N)=O [T9I] (H-RFRRLRKKIRKRLKKI-NH2)",
    "MIC [µM]": 128
  },
  {
    "molecule": "CC[C@H](C)[C@H](NC(=O)[C@H](CCCCN)NC(=O)[C@H](CCCCN)NC(=O)[C@H](CC(C)C)NC(=O)[C@H](CCCNC(=N)N)NC(=O)[C@H](CCCCN)NC(=O)[C@H](CCCNC(=N)N)NC(=O)[C@H](Cc1c[nH]c2ccccc12)NC(=O)[C@H](CCCCN)NC(=O)[C@H](CCCCN)NC(=O)[C@H](CCCNC(=N)N)NC(=O)[C@H](CC(C)C)NC(=O)[C@H](CCCNC(=N)N)NC(=O)[C@H](CCCNC(=N)N)NC(=O)[C@H](Cc1ccccc1)NC(=O)[C@@H](N)CCCNC(=N)N)C(N)=O [T9W] (H-RFRRLRKKWRKRLKKI-NH2)",
    "MIC [µM]": 64
  }
]

# evaluate next
response.value for CC[C@H](C)[C@H](NC(=O)[C@H](CCCCN)NC(=O)[C@H](CCCCN)NC(=O)[C@H](CC(C)C)NC(=O)[C@H](CCCNC(=N)N)NC(=O)[C@H](CCCCN)NC(=O)[C@H](CCCNC(=N)N)NC(=O)[C@H](Cc1ccccc1)NC(=O)[C@H](CCCCN)NC(=O)[C@H](CCCCN)NC(=O)[C@H](CCCNC(=N)N)NC(=O)[C@H](CC(C)C)NC(=O)[C@H](CCCNC(=N)N)NC(=O)[C@H](CCCNC(=N)N)NC(=O)[C@H](Cc1ccccc1)NC(=O)[C@@H](N)CCCNC(=N)N)C(N)=O [T9F] (H-RFRRLRKKFRKRLKKI-NH2) (field: MIC) = 64
